assay: melting temperature; fluorescence melt of hairpins on a sequencing array, two-state fit, raised by 9.35 °C to match UV melts; conditions: sodium 0.088 M
Readout type: Tm (°C)
Numbers only; they are read as °C.

GAGGTGCCGAAAGGCCTC (((..(((....)))))) = 37.5

What value of measured Tm is listed for GTCTTACGAAAGTATGAC (((.(((....))).))) ?
48.3

What value of measured Tm is listed for GTTATTGGAAACAATGAC ((.((((....)))).)) ?
36.9

What value of measured Tm is listed for GATCACACTTGTGATC ((((((....)))))) ?
56.4

What value of measured Tm is listed for GATCTAGTCCTAGATC ((((((....)))))) ?
47.4

What value of measured Tm is listed for GAAATGCGAAAGCACTTC (((.(((....))).))) ?
40.7

What value of measured Tm is listed for GATCTAGCCGTAGATC ((((((....)))))) ?
44.5

What value of measured Tm is listed for GGATACGAAAGTAGATCC ((((((....)))..))) ?
34.7

What value of measured Tm is listed for GCTTCGCGAAAGCGTAGC (((.(((....))).))) ?
55.7

What value of measured Tm is listed for GTGAAGGGAAACTTTCAC (((((.(....).))))) ?
40.2

What value of measured Tm is listed for GCCAGGCGAAAGCTCGGC (((..((....))..))) ?
59.8

What value of measured Tm is listed for GTAGAGCCGAAAGGCTAC (((..(((....)))))) ?
34.6

What value of measured Tm is listed for GACAGCCGAAAGGCGTC (((.(((....)))))) ?
60

What value of measured Tm is listed for GGTGCTGCGAAAGCAACC (((..(((....)))))) ?
43.8

What value of measured Tm is listed for GGTACAGGAAACCGTACC (((((.(....).))))) ?
47.1

What value of measured Tm is listed for GGCCCCGAAAGGGCAGCC ((((((....)))..))) ?
58.6

What value of measured Tm is listed for GATCTCCCGGGAGATC ((((((....)))))) ?
58.3

What value of measured Tm is listed for GGAAGAGCGAAAGCTTCC (((..(((....)))))) ?
43.8

What value of measured Tm is listed for GCCTGGCGAAAGCCTCGC ((..(((....)))..)) ?
45.3

What value of measured Tm is listed for GTGAGCCGAAAGGCACAC (((.(((....))).))) ?
59.8

What value of measured Tm is listed for TTTCAGAAATGAAA (((((....))))) ?
18

What value of measured Tm is listed for GAGCTGGGAAACCAGTTC ((.((((....)))).)) ?
47.4

What value of measured Tm is listed for GTCCTATCGAAAGATGAC (((..(((....)))))) ?
23.4

What value of measured Tm is listed for GATGCACGAAAGTGGATC (((.(((....))).))) ?
54.9

What value of measured Tm is listed for GATCTACACTTAGATC ((((((....)))))) ?
43.4
